- Assay Target: HiBit tagged KAT6A (Homo sapiens, UniProt Q92794)
- Construct: host or cells: HeLa
- Sequence (Q92794 whole entry): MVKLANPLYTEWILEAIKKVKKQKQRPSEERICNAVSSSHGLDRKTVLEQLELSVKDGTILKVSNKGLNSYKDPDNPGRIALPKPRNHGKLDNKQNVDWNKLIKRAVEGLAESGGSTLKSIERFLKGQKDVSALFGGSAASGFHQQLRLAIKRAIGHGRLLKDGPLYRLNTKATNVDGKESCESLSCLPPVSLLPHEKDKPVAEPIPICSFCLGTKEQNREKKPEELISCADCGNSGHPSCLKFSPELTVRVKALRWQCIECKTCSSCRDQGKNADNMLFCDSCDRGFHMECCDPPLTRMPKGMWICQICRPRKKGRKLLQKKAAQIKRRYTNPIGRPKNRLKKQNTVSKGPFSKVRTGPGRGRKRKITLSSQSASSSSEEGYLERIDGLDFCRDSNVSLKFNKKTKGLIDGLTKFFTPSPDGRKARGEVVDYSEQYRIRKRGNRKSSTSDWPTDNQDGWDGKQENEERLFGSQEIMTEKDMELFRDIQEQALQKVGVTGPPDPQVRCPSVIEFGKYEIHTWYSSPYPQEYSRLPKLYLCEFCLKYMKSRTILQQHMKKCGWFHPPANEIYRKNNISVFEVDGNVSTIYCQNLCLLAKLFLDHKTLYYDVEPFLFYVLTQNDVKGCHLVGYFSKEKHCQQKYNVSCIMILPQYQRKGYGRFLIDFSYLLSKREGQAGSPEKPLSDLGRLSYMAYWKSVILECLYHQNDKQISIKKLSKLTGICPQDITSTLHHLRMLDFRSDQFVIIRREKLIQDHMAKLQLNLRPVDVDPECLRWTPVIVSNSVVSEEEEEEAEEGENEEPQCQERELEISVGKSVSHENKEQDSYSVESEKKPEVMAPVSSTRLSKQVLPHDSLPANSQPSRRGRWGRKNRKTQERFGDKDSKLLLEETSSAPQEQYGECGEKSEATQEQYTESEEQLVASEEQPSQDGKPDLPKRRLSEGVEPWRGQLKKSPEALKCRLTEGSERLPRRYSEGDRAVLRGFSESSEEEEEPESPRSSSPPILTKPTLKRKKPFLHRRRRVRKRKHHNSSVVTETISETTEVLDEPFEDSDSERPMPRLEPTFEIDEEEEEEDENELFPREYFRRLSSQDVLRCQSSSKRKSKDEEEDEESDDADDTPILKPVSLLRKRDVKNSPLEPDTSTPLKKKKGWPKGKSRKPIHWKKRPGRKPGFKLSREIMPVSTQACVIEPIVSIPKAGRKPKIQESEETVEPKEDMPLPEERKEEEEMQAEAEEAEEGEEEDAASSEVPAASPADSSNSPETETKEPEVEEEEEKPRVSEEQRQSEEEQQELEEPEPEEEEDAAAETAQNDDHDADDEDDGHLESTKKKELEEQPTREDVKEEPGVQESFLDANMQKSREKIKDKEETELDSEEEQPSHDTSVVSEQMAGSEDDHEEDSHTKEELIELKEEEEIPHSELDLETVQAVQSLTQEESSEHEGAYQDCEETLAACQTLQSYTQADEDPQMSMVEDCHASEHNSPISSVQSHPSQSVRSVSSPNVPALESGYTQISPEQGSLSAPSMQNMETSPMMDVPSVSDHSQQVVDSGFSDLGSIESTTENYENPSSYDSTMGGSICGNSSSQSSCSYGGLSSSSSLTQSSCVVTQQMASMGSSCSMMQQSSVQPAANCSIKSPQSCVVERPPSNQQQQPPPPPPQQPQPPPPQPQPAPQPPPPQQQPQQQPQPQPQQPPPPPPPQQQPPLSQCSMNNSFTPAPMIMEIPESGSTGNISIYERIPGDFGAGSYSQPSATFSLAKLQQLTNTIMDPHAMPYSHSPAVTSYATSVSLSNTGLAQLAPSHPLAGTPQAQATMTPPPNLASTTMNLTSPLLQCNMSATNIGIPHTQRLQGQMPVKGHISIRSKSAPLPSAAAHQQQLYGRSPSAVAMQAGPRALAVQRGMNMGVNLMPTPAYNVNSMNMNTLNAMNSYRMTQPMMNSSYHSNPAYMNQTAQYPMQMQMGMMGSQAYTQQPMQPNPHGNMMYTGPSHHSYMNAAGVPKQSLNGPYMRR
- Method Description: HiBit KAT6A Degradation Assessment
- Type: cell-based
- Experimental Context: HeLa cells with HiBit tagged KAT6A, 18 h of treatment, 9-point serial dilution
Reported Dmax values are given for each entry in this list.

Asked: State the recorded Dmax for this entry: COc1cc(Cn2cccn2)cc2onc(NS(=O)(=O)c3cccc(N4CCN(CC5CC6(CCN(c7ccc8c(c7)C(=O)N(C7CCC(=O)NC7=O)C8=O)CC6)C5)CC4)c3)c12 (centres unmarked)
Given back: 50 to 75%

Asked: Further, for COc1c(N2CC3(CCN(C[C@@H]4CCN(c5ccc6c(c5)CN(C5CCC(=O)NC5=O)C6=O)C4)CC3)C2)cccc1S(=O)(=O)Nc1noc2cc(Cn3cccn3)cc(OC)c12 (some centres unmarked) ?
Given back: > 75%

Asked: Further, for COc1cc(Cn2cccn2)cc2onc(NS(=O)(=O)c3cccc(N4CCC5(CCN(C[C@@H]6CCN(c7ccc8c(c7)C(=O)N(C7CCC(=O)NC7=O)C8=O)C6)CC5)C4)c3)c12 (some centres unmarked) ?
Given back: 50 to 75%

Asked: Further, for COc1cc(Cn2cccn2)cc2onc(NS(=O)(=O)c3cccc(N4CC5(CCN(CC6(C)CCN(c7ccc8c(c7)C(=O)N(C7CCC(=O)NC7=O)C8=O)C6)CC5)C4)c3)c12 (centres unmarked) ?
Given back: 50 to 75%

More entries:
Asked: State the recorded Dmax for this entry: COc1cc(Cn2cccn2)cc2onc(NS(=O)(=O)c3cccc(N4C[C@@H]5CN(C[C@@H]6CCN(c7ccc8c(c7)CN([C@H]7CCC(=O)NC7=O)C8=O)C6)C[C@H]5C4)c3)c12
Given back: > 75%

* * *

- Assay Target: HiBit tagged KAT6A (Homo sapiens)
- Construct: host or cells: HeLa
- Method Description: HiBit KAT6A Degradation Assessment
- Type: cell-based
- Experimental Context: HeLa cells with HiBit tagged KAT6A, 18 h of treatment, 9-point serial dilution
Quantity Name: Dmax

For orientation, consider the following solved cases.
Asked: Could you share what Dmax was measured for COc1cc(Cn2cccn2)cc2onc(NS(=O)(=O)c3cccc(N4CC5(CN(CC6CCN(c7ccc8c(c7)C(=O)N(C7CCC(=O)NC7=O)C8=O)C6)C5)C4)c3)c12 (stereo not drawn) , tested on HiBit tagged KAT6A (Homo sapiens)?
Given back: 50 to 75%

Asked: Further, for COc1cc(Cn2cccn2)cc2onc(NS(=O)(=O)c3cccc(N(C)C4CCN(C[C@@H]5CCN(c6ccc7c(c6)CN([C@H]6CCC(=O)NC6=O)C7=O)C5)CC4)c3)c12 ?
Given back: 50 to 75%

Shift focus to the following entry.
Asked: Could you share what Dmax was measured for COc1cc(Cn2cccn2)cc2onc(NS(=O)(=O)c3cccc(N4CC5(CCN(CC6CCN(c7ccc8c(c7)C(=O)N(C7CCC(=O)NC7=O)C8)C6)CC5)C4)c3)c12 (stereo not drawn) , tested on HiBit tagged KAT6A (Homo sapiens)?
Given back: 50 to 75%

* * *

- Assay Target: HiBit tagged KAT6A (Homo sapiens)
- Construct: host or cells: HeLa
- Method Description: HiBit KAT6A Degradation Assessment
- Type: cell-based
- Experimental Context: HeLa cells with HiBit tagged KAT6A, 18 h of treatment, 9-point serial dilution
Quantity Name: Dmax

Asked: State the recorded Dmax for this entry: COc1cc(Cn2cccn2)cc2onc(NS(=O)(=O)c3cccc(N4CCN(CCC5CCN(c6ccc7c(c6)C(=O)N(C6CCC(=O)NC6=O)C7=O)CC5)CC4)c3)c12 (stereo not drawn) [Example 3]
Given back: 50 to 75%

Asked: Further, for COc1cc(Cn2cccn2)cc2onc(NS(=O)(=O)c3cccc(N4CCN(CCOC5CCN(c6ccc7c(c6)C(=O)N(C6CCC(=O)NC6=O)C7=O)CC5)CC4)c3)c12 (stereo not drawn) [Example 17] ?
Given back: 25 to 50%

Asked: Further, for COc1cc(Cn2cccn2)cc2onc(NS(=O)(=O)c3cccc(N4CCN(CC5CCN(c6cccc7c6C(=O)N(C6CCC(=O)NC6=O)C7=O)CC5)CC4)c3)c12 (stereo not drawn) [Example 32] ?
Given back: 50 to 75%
